- target.entity: T1, cynomolgus CX3CR1 (cynomolgus, UniProt P49238 1-355 (human entry))
- T1 construct: transiently expressed on HEK293T cells; also called cyCX3CR1; cyno CX3CR1
- T1 chain: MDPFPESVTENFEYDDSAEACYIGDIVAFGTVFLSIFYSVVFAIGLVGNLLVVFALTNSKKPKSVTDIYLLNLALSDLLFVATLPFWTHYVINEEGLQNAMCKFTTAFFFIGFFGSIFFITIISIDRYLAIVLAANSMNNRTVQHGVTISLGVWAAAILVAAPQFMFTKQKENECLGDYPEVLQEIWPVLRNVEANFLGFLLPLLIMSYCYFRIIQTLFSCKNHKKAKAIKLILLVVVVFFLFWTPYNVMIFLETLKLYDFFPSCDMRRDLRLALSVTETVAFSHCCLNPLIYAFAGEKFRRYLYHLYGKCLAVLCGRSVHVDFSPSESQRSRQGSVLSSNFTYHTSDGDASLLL
- experimental.details: FACS binding on cynomolgus CX3CR1 cells, anti-c-myc detection
Measured pEC50 values are reported for all entries that follow.
The scale used: pEC50 is minus the common logarithm of the concentration in molar units.

binder	pEC50
CX3CR1BIIPMP54A7 (VHH, also called 54A07; not shown: C-terminal c-myc and His6 tags) VHH: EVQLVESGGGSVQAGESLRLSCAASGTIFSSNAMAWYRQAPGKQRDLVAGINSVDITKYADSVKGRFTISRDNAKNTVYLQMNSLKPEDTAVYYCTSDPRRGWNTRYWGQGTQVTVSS	7.52
CX3CR1BIIPMP54D5 (VHH, also called 54D05; CX3CR1BII54D5; not shown: C-terminal c-myc and His6 tags) VHH: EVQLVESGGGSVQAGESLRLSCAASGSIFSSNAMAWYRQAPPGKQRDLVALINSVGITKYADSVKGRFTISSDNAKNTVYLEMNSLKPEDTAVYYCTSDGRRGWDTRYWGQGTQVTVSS	7.30
CX3CR1BIIPMP54A12 (VHH, also called CX3CR1BII54A12; not shown: C-terminal c-myc and His6 tags) VHH: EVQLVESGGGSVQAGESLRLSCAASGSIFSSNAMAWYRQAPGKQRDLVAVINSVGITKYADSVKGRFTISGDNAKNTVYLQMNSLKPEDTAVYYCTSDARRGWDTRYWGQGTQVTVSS	6.96

Task: Recorded pEC50 for CX3CR1BIIPMP18E6 (VHH, family 13; also called 18E06; CX3CR1BII18E06; not shown: C-terminal c-myc and His6 tags) VHH: KVQLVESGGGLVQPGGSLRLSCATSGTIFSNNAMGWYRQAPGKKRDLVASISSSGSTNYADSVKGRFTVSRDNDKNTGYLQMNSLKPEDTGVYYCTLDARRGWNTAYWGQGAQVTVSS , please?
Output: 7.85
